System: PANC-1
Assay: SRB colorimetric assay of cell growth and viability, PANC-1
Format: cell-based, human
Settings: 48 hours exposure, SRB; read-out: LC50 PANC-1
Value kind: CC50 (µM)
Write the number in µM without appending the unit.

Request: Query (molecule): C/C=C1\NC(=O)[C@H](Cc2ccccc2)N(C)C(=O)[C@@H](C(C)C)NC(=O)[C@@H]([C@@H](C)CC)NC(=O)[C@H](NC(=O)[C@H](NC(=O)[C@H](CCCN)NC(=O)[C@H]2CCCN2C(=O)[C@H](NC(=O)[C@@H](NC(=O)[C@@H](NC(=O)[C@H](NC(=O)CC[C@@H](C)CC)C(C)C)[C@@H](C)O)C(C)C)C(C)C)[C@@H](C)CC)[C@@H](C)OC(=O)[C@H](C(C)C)NC1=O [Compound 80, [NMePhe^3, (4S)-MeHex^14]-KF] ; field requested: CC50
Result: 6.7

----------
System: A-549
Experiment: SRB colorimetric assay of cell growth and viability, A-549
Type: cell-based, human
Details: 48 hours exposure; read-out: LC50 A-549
Where a SMILES comes first, the peptide text is derived from it. Bridges are numbered along the chain shown (N, C = ends). [ ]: non-standard residue; d: D form. The star is where a group is joined. d(aIle) = CC[C@H](C)[C@@H](N)C(=O)O; d(aThr) = C[C@@H](O)[C@@H](N)C(=O)O; Hexanoyl(5-Me) = CC(C)CCCC(=O)*; Orn = NCCC[C@H](N)C(=O)O; Dhb = C/C=C(\N)C(=O)O
Reported CC50 values for the following compounds.
Please reply with the bare figure in µM and do not write the unit itself.

{"Compound": "C/C=C1\\NC(=O)[C@H](Cc2ccccc2)NC(=O)[C@@H](C(C)C)NC(=O)[C@@H]([C@@H](C)CC)NC(=O)[C@H](NC(=O)[C@H](NC(=O)[C@H](CCCN)NC(=O)[C@H]2CCCN2C(=O)[C@H](NC(=O)[C@H](C)NC(=O)[C@@H](NC(=O)[C@H](NC(=O)CCCC(C)C)C(C)C)[C@@H](C)O)C(C)C)[C@@H](C)CC)[C@@H](C)OC(=O)[C@H](C(C)C)NC1=O [Compound 44, [Ala^11]-KF] ({Hexanoyl(5-Me)}-[dV]TA[dV][dP][Orn][d(aIle)][d(aThr)][d(aIle)][dV]F[Dhb]V; ester 8-C)", "Unit abbrev": "µM", "CC50": 6.9}

Request: What CC50 value was documented for this compound, C/C=C1\NC(=O)[C@H](Cc2ccccc2)NC(=O)[C@@H](C(C)C)NC(=O)[C@@H]([C@@H](C)CC)NC(=O)[C@H](NC(=O)[C@H](NC(=O)[C@H](CCCN)NC(=O)[C@H]2CCCN2C(=O)[C@H](NC(=O)[C@@H](NC(=O)[C@@H](NC(=O)CNC(=O)CCCC(C)C)[C@@H](C)O)C(C)C)C(C)C)[C@@H](C)CC)[C@@H](C)OC(=O)[C@H](C(C)C)NC1=O [Compound 33, [Gly^13]-KF] ?
Result: 6.96

----------
Tested on: SK-OV-3
Assay: SRB colorimetric assay of cell growth and viability, SK-OV-3
Format: cell-based, human
Settings: 48 hours exposure
Where a SMILES comes first, the peptide text is derived from it. Bridges are numbered along the chain shown (N, C = ends). [ ]: non-standard residue; d: D form. The star is where a group is joined. d(aIle) = CC[C@H](C)[C@@H](N)C(=O)O; d(aThr) = C[C@@H](O)[C@@H](N)C(=O)O; Hexanoyl(5-Me) = CC(C)CCCC(=O)*; Myristoyl = CCCCCCCCCCCCCC(=O)*; Orn = NCCC[C@H](N)C(=O)O; Dhb = C/C=C(\N)C(=O)O
Each item that follows carries a reported TGI SKOV-3.
// return numeric value only (unit: Molar, not printed)

{"Compound": "C/C=C1\\NC(=O)[C@H](Cc2ccccc2)NC(=O)[C@@H](C(C)C)NC(=O)[C@@H]([C@@H](C)CC)NC(=O)[C@H](NC(=O)[C@H](NC(=O)[C@H](CCCN)NC(=O)[C@H]2CCCN2C(=O)[C@H](NC(=O)CCCCCCCCCCCCC)C(C)C)[C@@H](C)CC)[C@@H](C)OC(=O)[C@H](C(C)C)NC1=O [Compound 32] (Myristoyl-[dV][dP][Orn][d(aIle)][d(aThr)][d(aIle)][dV]F[Dhb]V; ester 5-C)", "Result number": "6.27E−06"}

Request: Which measured TGI SKOV-3 value corresponds to C/C=C1\NC(=O)[C@H](Cc2ccccc2)NC(=O)[C@@H](C(C)C)NC(=O)[C@@H]([C@@H](C)CC)NC(=O)[C@H](NC(=O)[C@H](NC(=O)[C@H](CCCN)NC(=O)[C@H]2CCCN2C(=O)[C@H](NC(=O)[C@@H](NC(=O)[C@@H](NC(=O)[C@H](NC(=O)Cc2ccc(C(F)(F)F)cc2)C(C)C)[C@@H](C)O)C(C)C)C(C)C)[C@@H](C)CC)[C@@H](C)OC(=O)[C@H](C(C)C)NC1=O [Compound 25, [p-CF3PhAc^14]-KF] ?
Result: 3.29E−07

Request: Entry under review: C/C=C1\NC(=O)[C@H](Cc2ccccc2)NC(=O)[C@@H](C(C)C)NC(=O)[C@@H]([C@@H](C)CC)NC(=O)[C@H](NC(=O)[C@H](NC(=O)[C@H](CCCN)NC(=O)[C@H]2CCCN2C(=O)[C@H](NC(=O)[C@@H](NC(=O)[C@@H](NC(=O)[C@H](NC(=O)CCCCC(C)(F)F)C(C)C)[C@@H](C)O)C(C)C)C(C)C)[C@@H](C)CC)[C@@H](C)OC(=O)[C@H](C(C)C)NC1=O [Compound 28, [6,6-dFHep^14]-KF] . Reported TGI SKOV-3?
Result: 3.36E−07

Request: Field request: TGI SKOV-3 | item: C/C=C1\NC(=O)[C@H](Cc2ccccc2)NC(=O)[C@@H](C(C)C)NC(=O)[C@@H]([C@@H](C)CC)NC(=O)[C@H](NC(=O)[C@H](NC(=O)[C@H](CCCN)NC(=O)[C@H]2CCCN2C(=O)[C@H](NC(=O)CCCC(C)C)C(C)C)[C@@H](C)CC)[C@@H](C)OC(=O)[C@H](C(C)C)NC1=O [Compound 31, [noVal^11, noThr^12, noD-Val^13]-KF] ({Hexanoyl(5-Me)}-[dV][dP][Orn][d(aIle)][d(aThr)][d(aIle)][dV]F[Dhb]V; ester 5-C)
Result: 5.03E−06

Request: Given the compound C/C=C1\NC(=O)[C@H](Cc2ccccc2)NC(=O)[C@@H](C(C)C)NC(=O)[C@@H]([C@@H](C)CC)NC(=O)[C@H](NC(=O)[C@H](NC(=O)[C@H](CCC(=O)O)NC(=O)[C@H]2CCCN2C(=O)[C@H](NC(=O)[C@@H](NC(=O)[C@@H](NC(=O)[C@H](NC(=O)CCCC(C)C)C(C)C)[C@@H](C)O)C(C)C)C(C)C)[C@@H](C)CC)[C@@H](C)OC(=O)[C@H](C(C)C)NC1=O [Compound 4, [Glu^8]-KF] ({Hexanoyl(5-Me)}-[dV]TV[dV][dP]E[d(aIle)][d(aThr)][d(aIle)][dV]F[Dhb]V; ester 8-C) , what is its reported TGI SKOV-3?
Result: 5.85E−07

Request: Requested read-out: TGI SKOV-3. Entry: C/C=C1\NC(=O)[C@H](Cc2ccccc2)NC(=O)[C@@H](C(C)C)NC(=O)[C@@H]([C@@H](C)CC)NC(=O)[C@H](NC(=O)[C@H](NC(=O)[C@H](CCCCN)NC(=O)[C@H]2CCCN2C(=O)[C@H](NC(=O)[C@@H](NC(=O)[C@@H](NC(=O)[C@H](NC(=O)CCCC(C)C)C(C)C)[C@@H](C)O)C(C)C)C(C)C)[C@@H](C)CC)[C@@H](C)OC(=O)[C@H](C(C)C)NC1=O [Compound 5, [Lys^8]-KF]
Result: 4.08E−07

----------
Test system: HeLa-APL
Assay: SRB colorimetric assay of cell growth and viability, HeLa-APL
Assay type: cell-based, human
Settings: 48 hours exposure; read-out: LC50 HELA-APL
Where a SMILES comes first, the peptide text is derived from it. Bridges are numbered along the chain shown (N, C = ends). [ ]: non-standard residue; d: D form. The star is where a group is joined. d(aIle) = CC[C@H](C)[C@@H](N)C(=O)O; d(aThr) = C[C@@H](O)[C@@H](N)C(=O)O; Hexanoyl(5-Me) = CC(C)CCCC(=O)*; Orn = NCCC[C@H](N)C(=O)O; Dhb = C/C=C(\N)C(=O)O
Value kind: CC50 (µM)
Express the result in µM but write the number alone.

Request: Consider the molecule C/C=C1\NC(=O)[C@H](Cc2ccccc2)NC(=O)[C@@H](C(C)C)NC(=O)[C@@H]([C@@H](C)CC)NC(=O)[C@H](NC(=O)[C@H](NC(=O)[C@H](CCCN)NC(=O)[C@H]2CCCN2C(=O)[C@H](NC(=O)[C@H](CCCN)NC(=O)[C@@H](NC(=O)[C@H](NC(=O)CCCC(C)C)C(C)C)[C@@H](C)O)C(C)C)[C@@H](C)CC)[C@@H](C)OC(=O)[C@H](C(C)C)NC1=O [Compound 49, [Orn^11]-KF] ({Hexanoyl(5-Me)}-[dV]T[Orn][dV][dP][Orn][d(aIle)][d(aThr)][d(aIle)][dV]F[Dhb]V; ester 8-C) and give its measured CC50.
Result: 5.95

Request: Can you look up the measured CC50 of C/C=C1\NC(=O)[C@H](Cc2ccccc2)NC(=O)[C@@H](C(C)C)NC(=O)[C@@H]([C@@H](C)CC)NC(=O)[C@H](NC(=O)[C@H](NC(=O)[C@H](CCCN)NC(=O)[C@H]2CCCN2C(=O)[C@H](NC(=O)[C@@H](NC(=O)[C@@H](NC(=O)[C@@H](Cc2ccccc2)NC(=O)CCCC(C)C)[C@@H](C)O)C(C)C)C(C)C)[C@@H](C)CC)[C@@H](C)OC(=O)[C@H](C(C)C)NC1=O [Compound 36, [D-Phe^13]-KF] for me?
Result: 6.55

Request: State the recorded CC50 for this entry: C/C=C1\NC(=O)[C@H](Cc2ccccc2)NC(=O)[C@@H](C(C)C)NC(=O)[C@@H]([C@@H](C)CC)NC(=O)[C@H](NC(=O)[C@H](NC(=O)[C@H](CCCN)NC(=O)[C@H]2CCCN2C(=O)[C@H](NC(=O)[C@@H](NC(=O)[C@@H](NC(=O)[C@H](NC(=O)CCCCCCC)C(C)C)[C@@H](C)O)C(C)C)C(C)C)[C@@H](C)CC)[C@@H](C)OC(=O)[C@H](C(C)C)NC1=O [Compound 18, [Oct^14]-KF]
Result: 3.35
